growth values by entry
Test system: A549/ATCC NSCLC
Experiment: NCI-60 one-dose screen, 48 h (100 = growth as untreated, 0 = no growth, -100 = all killed)
Details: 10 µM unless noted
Compounds without any hit were thinned out: in the full panel of roughly 83,000, 20% have a hit. Activity calls are given as the source filed them. The calls were made as follows: active = growth percent below 10; inactive = the rest.

Here's what some known entries look like.
CN1CCN(CC(=O)Nc2nc3c(s2)Nc2cc(Cl)c(Cl)cc2NC3=O)CC1
95.9% (inactive)
CCCOc1ccc2c(c1)CC[C@@H]1[C@@H]2CC[C@@]2(C)[C@H]1CC[C@]2(C)O
63.7% (inactive)
CCCc1cc(=O)n2c(C(=O)Nc3ccccc3OC)c(C(=O)Nc3ccc(F)cc3)sc2n1
16.1% [30 µM] (inactive)

Now look at this entry.
Lookup result for O=C(C(Br)Br)C(Br)C(Br)c1ccccc1 (centres undefined) ; measured growth: 98.5% (inactive)

###

Test system: MALME-3M melanoma
Assay: NCI-60 one-dose screen, 48 h
Details: 10 µM unless noted
This is part of a sample that, as a whole, favours compounds with a hit. Of some 83,000 tested, about 20% had one in any assay. The source made the active and inactive calls. Rule for the calls: active = growth percent below 10; inactive = the rest.
Please answer using one outcome listed in T for active, F for inactive

O=C(/C=C/c1cc2ccccc2[nH]c1=O)c1ccc(O)cc1
F

Prompt line: GET /call?item= "O=C(Nc1ccc(Oc2ccc(NC(=O)Nc3ccc([N+](=O)[O-])cc3)cc2)cc1)Nc1ccc([N+](=O)[O-])cc1" returns the recorded outcome of this test.
Response line: T

Prompt line: GET /call?item= "CCCc1cc(=O)n2c(C(=O)Nc3ccccc3OC)c(C(=O)Nc3ccc(F)cc3)sc2n1" returns the recorded outcome of this test.
Response line: F

Prompt line: GET /call?item= COc1cc(/C=C/C(=O)c2ccc(F)cc2)ccc1OCCCCCOc1cc2c(cc1OC)C(=O)N1CCCC1C=N2 (centres undefined) returns the recorded outcome of this test.
Response line: T

Prompt line: GET /call?item= "COc1ccc(CCN2CCCN3C2=Nc2ccccc2S3(=O)=O)cc1" returns the recorded outcome of this test.
Response line: F

###

Tested on: OVCAR-8 ovarian
Test: NCI-60 one-dose screen, 48 h
Conditions: 10 µM unless noted
This is part of a sample that, as a whole, favours compounds with a hit. Of some 83,000 tested, about 20% had one in any assay. Activity calls are given as the source filed them. The calls were made as follows: active = growth percent below 10; inactive = the rest.
Please answer using one outcome listed in active, inactive

Worked examples follow.
O=c1[nH]c(=O)n(C2CC(O)C(CO)O2)cc1C(F)(F)F (stereo unspecified)
inactive
COC1=CC(c2ccc[nH]2)=N/C1=C\c1[nH]c(C)c(C(=O)CCC(=O)Oc2ccc3c(c2)CCC2C3CC[C@]3(C)C(=O)CC[C@@H]23)c1C (stereo partly specified)
inactive
CC(=O)c1nc2ccccc2n1CCn1cc(CC(N)C(=O)O)c2ccccc21 (stereo unspecified)
inactive
O[C@@H]1Cc2ccc3ccccc3c2N[C@H](c2ccoc2)C1
inactive
O=C(/C(=C/c1ccc([N+](=O)[O-])cc1)c1ccccc1)c1ccccc1
active

// next entry
Prompt line: GET /call?item= "COc1ccc(C(=O)COc2cccc(/C=C3\Oc4ccc5ccccc5c4C3=O)c2)cc1" returns the recorded outcome of this test.
Response line: inactive

###

Test system: SN12C renal
Assay: NCI-60 one-dose screen, 48 h
Details: 10 µM unless noted
Method: Growth inhibition of the SN12C human tumor cell line is measured as a screen for anti-cancer activity. Cells are grown in 96 well plates and exposed to the test compound for 48 hours. Compounds are tested at a single concentration, which is 10^-5 M for most compounds. The reported endpoint is percent growth (GI% or GIPRCNT), where numbers from 0 - 100% represent growth inhibition, and numbers from -100% - 0 represent cell death. For example, a value of 40 represents 60% growth inhibition. […]
Compounds without any hit were thinned out: in the full panel of roughly 83,000, 20% have a hit. Activity calls are given as the source filed them. The calls were made as follows: active = growth percent below 10; inactive = the rest.
Please answer using one outcome listed in y = active, n = inactive

c1csc([C@@H]2C[C@@H]3Cc4ccc5ccccc5c4N2O3)c1
n
CC(NC(=O)C(C)Oc1ccc(Cl)cc1Cl)C(=O)O (centres undefined)
n

Prompt line: GET /call?item= COc1ccc(C2CC(c3ccc(OC)c(OC)c3)=NN2C(=O)c2cc(OC)c(OC)c(OC)c2)cc1 (centres undefined) returns the recorded outcome of this test.
Response line: n

Prompt line: GET /call?item= C[N+]1(CCC[N+]2(C)C[C@@H]3[C@H](C2)[C@@H]2C=C[C@H]3C2)CCOCC1 (some centres undefined) returns the recorded outcome of this test.
Response line: n

Prompt line: GET /call?item= "O=C(C=C=Nc1ccccc1)C(=O)N=C=Cc1ccccc1" returns the recorded outcome of this test.
Response line: n

###

growth values by entry
Tested on: HCT-116 colon
Assay: NCI-60 one-dose screen, 48 h (100 = growth as untreated, 0 = no growth, -100 = all killed)
Settings: 10 µM unless noted
About 83,000 compounds went through this panel and 20% of them were active in at least one assay; those are over-represented in the sample as a whole.
Enter your answer as a number in %; do not include the unit.

Here's what some known entries look like.
COc1cc2c(c(OC)c1OC)CCc1cnoc1-2
176
CCC1(c2ccccc2)Oc2ccccc2-n2c(C#N)c3ccccc3c2C1=O (configuration not stated)
86.7
COc1ccc2c(c1)nc(N)c1c3cc(C)c(C)cc3cn21
49.6

Lookup result for "C[n+]1c2ccccc2c(Nc2ccc(N3CCCCC3)cc2)c2[nH]c3ccccc3c21" ; measured growth: -98.7

Lookup result for "Cn1cnc([N+](=O)[O-])c1S(=O)(=O)Oc1ccc(Cl)cc1" ; measured growth: -32.1

Lookup result for "COc1ccc(-c2c(-c3cc(OC)c(OC)c(OC)c3)noc2N)cc1" ; measured growth: 8.77

Lookup result for "COc1cc(/C=C/C(=O)Nc2ccc3c(c2)/C(=C\c2cccn2C)C(=O)N3)cc(OC)c1OC" ; measured growth: 37.3

Lookup result for CCCCCCCC1(C)NC(=O)NC1=O (configuration not stated) ; measured growth: 103

Lookup result for "O=C1/C(=C/c2ccc3cccc(Cl)c3n2)SC(=S)N1CCc1ccc(O)cc1" ; measured growth: 99.2

Lookup result for O=C(/C=C/c1ccccc1)CC(c1ccccc1)N1CCOCC1 (configuration not stated) ; measured growth: -97

Lookup result for "CC/C(=C\c1ccc(N(C)C)cc1)c1nc2ccccc2c(=O)[nH]1" ; measured growth: 108

Lookup result for "O=C(CN1CCCCC1)Sc1nnc2sc3ccccc3n12" ; measured growth: 95.3

Lookup result for "CCCCCCOc1ccc(/C=N/NC(N)=S)cc1" ; measured growth: 33.6

Lookup result for "Cc1c(NCc2nnc3n(Cc4ccccc4)c(=O)c4c5c(sc4n23)CCCC5)c(=O)n(-c2ccccc2)n1C" ; measured growth: 88.1

Lookup result for CCC(O)C(C)(C)C (configuration not stated) ; measured growth: 106

###

System: T-47D breast
Experiment: NCI-60 one-dose screen, 48 h (100 = growth as untreated, 0 = no growth, -100 = all killed)
Details: 10 µM unless noted
The panel holds about 83,000 compounds, 20% with a hit somewhere; the sample as a whole holds those more often.
growth values by entry
Enter your answer as a number in %; do not include the unit.

Here's what some known entries look like.
O=C(C(=O)N1CCCCC1)c1ccc(OC2OC(CO)C(O)C(O)C2O)cc1 (stereo not drawn)
99.6
Cc1cc(N2CCOCC2)nc(N2CCOCC2)n1
98
COc1ccc(COC(C)=O)cc1
102
CC(C)[C@]12O[C@H]1[C@@H]1O[C@]13[C@]1(O[C@H]1C[C@H]1C4=C(CC[C@@]13C)C(=O)OC4)[C@@H]2OC(=O)CN(C)C
27.2
COc1ccc(/C=N\Nc2ccc([N+](=O)[O-])cn2)cc1OC
-7.26
CC(C)C(=O)Cc1cnccn1
109
O=C1C[C@@H]2/C(=C(O)\C=C\c3ccccc3)C(=O)C=C[C@@H]2O1
16.7
O=C(NN(C(=O)c1ccccc1)c1cccs1)c1ccccc1
94.9

Lookup result for "NC(N)=NN=c1c(=O)c2ccccc2c1=O" ; measured growth: 116

Lookup result for "CCCCCCCCCCCCCCCCN=C(CC(=O)O)C(=O)O" ; measured growth: 102

Lookup result for "C[C@]12C[C@H](O)[C@H]3[C@@H](CCC4=CC(=O)CC[C@@]43C)[C@@H]1CC[C@@H]2C(=O)CO" ; measured growth: 92

Lookup result for "C[C@]12CC[C@@H]3c4ccc(O)c([N+](=O)[O-])c4CC[C@H]3[C@@H]1CC[C@@H]2NS(=O)(=O)c1cccc(Br)c1" ; measured growth: 24.6

Lookup result for CC(=O)O[C@H]1C(=O)[C@@]2(C)C([C@H](OC(=O)c3ccccc3)[C@]3(O)C[C@H](OC(=O)[C@H](O)[C@@H](NC(=O)c4ccccc4)c4ccccc4)C(C)=C1C3(C)C)[C@]1(OC(C)=O)CO[C@@H]1C[C@@H]2O (stereo partly drawn) ; measured growth: 47.3

Lookup result for "O=C(/C(=C/c1ccc([N+](=O)[O-])cc1)c1ccccc1)c1ccccc1" ; measured growth: 72

Lookup result for "O=C(/C=C/c1cc2ccccc2[nH]c1=O)c1ccc(Cl)cc1" ; measured growth: 34
